Provenance of the data: PubChem BioAssay AID248

# Test system: L1210 leukemia ip in BDF1 mice, survival T/C
# Measurement Description: NCI In Vivo Anticancer Drug Screen. Data for tumor model L1210 Leukemia (intraperitoneal) in B6D2F1 (BDF1) mice
# Measurement Parameters: endpoint: mean survival time; dose: 10.0 mg/kg/injection; schedule: Q01DX001 (ip); vehicle: saline; higher = longer survival
Inconclusive results and toxic doses are left out.
Consider the following compounds and their measured T/C readings.

* COc1ccc2cc3[n+](cc2c1OC)CCc1cc2c(cc1-3)OCO2 | 109 % of control
* COc1cc(O)c2ncccc2c1O | 101 % of control
* CC1OC(O[C@@H]2C=C3CC[C@@H]4[C@H](CC[C@]5(C)[C@@H](c6ccc(=O)oc6)CC[C@]45O)[C@@]3(C)CC2)C(O)C(OC2OC(CO)C(O)C(O)C2O)C1O (stereo partly specified) | 106 % of control
* CCC[CH2][Sn]([CH2]CCC)([CH2]CCC)[S]C(=S)NCCNC(=S)[S][Sn]([CH2]CCC)([CH2]CCC)[CH2]CCC | 101 % of control

Field T/C (L1210 leukemia ip in BDF1 mice, survival T/C), entry "CCCCCCCC/C=C\CCCCCCCC(=O)N1CC[N+](C)(C)CC1" : 104 % of control

// compound "BrCc1cccc(C[P+](c2ccccc2)(c2ccccc2)c2ccccc2)c1" , assay L1210 leukemia ip in BDF1 mice, survival T/C, T/C value: 114 % of control

----------
// reported T/C for each item listed
# Test system: L1210 leukemia ip in BDF1 mice, survival T/C
# Measurement Description: NCI In Vivo Anticancer Drug Screen. Data for tumor model L1210 Leukemia (intraperitoneal) in B6D2F1 (BDF1) mice
# Measurement Parameters: endpoint: mean survival time; dose: 200.0 mg/kg/injection; schedule: Q01DX001 (ip); vehicle: saline; higher = longer survival
Toxic doses and inconclusive results are not listed.

Observe how each entry below is paired with its result.
* Cc1nnnn1C | 108 % of control
* CCOC(=O)NCCO | 95 % of control
* COc1ccc(NC(=O)NNC(=O)CCCC(=O)NNC(=O)Nc2ccc(OC)cc2)cc1 | 93 % of control
* Cc1cc(=O)[nH]c(N/N=C/c2c(O)ccc3ccccc23)n1 | 94 % of control
* CC(C)(O)C1(O)CCCC1 | 101 % of control
* OCn1c(O)c2ccccc2c1N=Nc1ccccc1 | 95 % of control
* O=c1c2ccccc2ncn1C1OC(CO)C(O)C1O (configuration not stated) | 102 % of control
* O=C(CCN1CCCCC1)c1ccc([N+](=O)[O-])cc1 | 103 % of control
* NC(CS)C(=O)O (configuration not stated) (tested in a mixture with another compound) | 92 % of control
* CCC1([N+](=O)[O-])COP(=O)(OC(=O)c2ccccc2)OC1 (configuration not stated) | 108 % of control

Next item in the queue.
Entry "C[N+](C)(Cc1ccccc1)/N=C(\[O-])Cc1ccccc1" ; T/C = 104 % of control

----------
# System: L1210 leukemia ip in BDF1 mice, survival T/C
# Measurement Description: NCI In Vivo Anticancer Drug Screen. Data for tumor model L1210 Leukemia (intraperitoneal) in B6D2F1 (BDF1) mice
# Measurement Parameters: endpoint: mean survival time; dose: 400.0 mg/kg/injection; schedule: Q01DX009 (ip); vehicle: saline with Tween-80
Toxic doses and inconclusive results are not listed. Cut-off read from the data, not from the text of the source: active = T/C of 150% or more; inactive = T/C below 125%.
The categories you may choose from are active, inactive

Past entries and their recorded results:
* CCOC(=O)C(Cc1c(C)c(OC)c(CC(C(=O)OCC)C(=O)OCC)c(C)c1OC)C(=O)OCC | inactive
* COc1cccc(OC)c1C1(O)c2c(OC)cccc2Oc2cccc(OC)c21 | inactive
* Nc1nc(SCC(=O)c2ccccc2)c2[nH]cnc2n1 | active

Query molecule follows.
Qu. // outcome(item) with item = "Cn1c(CO)cc2ccccc21"
Ans. inactive
